System: Mus musculus
protocolDescription: Biodistribution in eyes of C57BL/6J mouse bearing mouse B16F0 cells at 0.37 to 1.85 MBq, iv after 1 hr by gamma counting method
Format: ADME, organism-based, Eye
cond: in vivo
recordedEndpoint: Drug uptake (% ID/g)
All answers are understood in % ID/g, so give the number only.

Some solved cases for reference:
querySmiles	unitsLabel	Drug uptake
O=C(CN1Cc2ccccc2C1=O)N1C[C@H]2CN(Cc3ccc([123I])cc3)C[C@H]2C1	% ID/g	18.2
O=C(c1ccc2c(n1)NCCC2)N1CCN(Cc2ccc([123I])cc2)CC1	% ID/g	40.3
O=C(c1ccc2cccnc2n1)N1CCN(Cc2ccc([123I])cc2)CC1	% ID/g	32

We next turn to a different molecule, shown below.
Prompt: Please indicate Drug uptake recorded for O=C(CN1Cc2ccccc2C1=O)NC1CCN(Cc2ccc([123I])cc2)CC1
Response: 13.7
